FYI, the data here is from patent US20220177594A1.

Biological target: Feline_OSMR_hlgG1_Fc (feline)
Sequence (chain, as listed by the source limits assumed, form in doubt): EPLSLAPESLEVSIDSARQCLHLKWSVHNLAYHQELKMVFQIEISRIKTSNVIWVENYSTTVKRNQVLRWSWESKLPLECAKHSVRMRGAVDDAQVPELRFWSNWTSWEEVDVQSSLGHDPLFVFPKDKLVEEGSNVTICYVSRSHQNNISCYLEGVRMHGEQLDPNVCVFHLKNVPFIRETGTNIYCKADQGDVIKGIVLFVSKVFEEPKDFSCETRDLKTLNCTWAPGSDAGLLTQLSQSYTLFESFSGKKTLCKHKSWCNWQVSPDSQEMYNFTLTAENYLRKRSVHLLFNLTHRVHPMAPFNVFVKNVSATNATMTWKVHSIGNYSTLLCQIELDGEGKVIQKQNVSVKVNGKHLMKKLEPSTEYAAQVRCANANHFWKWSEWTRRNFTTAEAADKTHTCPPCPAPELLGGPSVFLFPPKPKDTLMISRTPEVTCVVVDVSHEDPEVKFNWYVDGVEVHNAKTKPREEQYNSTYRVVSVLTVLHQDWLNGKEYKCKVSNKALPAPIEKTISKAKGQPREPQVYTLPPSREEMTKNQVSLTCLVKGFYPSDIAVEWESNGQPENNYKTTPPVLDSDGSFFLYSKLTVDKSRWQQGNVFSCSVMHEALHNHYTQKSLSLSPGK
Experiment: SPR Biacore
OBSERVED PROPERTY: kon (M⁻¹ s⁻¹)
Report the figure in M⁻¹ s⁻¹ without appending any unit label.

>>> endpoint_value("mouse: canine 10F07 chimera (antibody, V domains shown) VH: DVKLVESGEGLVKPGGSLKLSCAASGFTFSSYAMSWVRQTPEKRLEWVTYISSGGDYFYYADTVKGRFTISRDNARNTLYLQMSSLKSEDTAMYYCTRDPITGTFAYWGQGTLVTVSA VL: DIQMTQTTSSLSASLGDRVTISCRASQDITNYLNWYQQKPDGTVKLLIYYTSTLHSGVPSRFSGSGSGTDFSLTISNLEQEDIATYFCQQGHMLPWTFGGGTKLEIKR")
220000

Read the next record carefully.
Input: Item under review: Mu_02D09_VL (SEQ ID NO: 33)_Q27A (antibody, V domains shown) VH: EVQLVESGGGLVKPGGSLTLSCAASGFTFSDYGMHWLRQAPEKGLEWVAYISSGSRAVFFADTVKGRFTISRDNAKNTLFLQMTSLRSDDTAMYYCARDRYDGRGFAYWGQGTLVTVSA VL: DIVLTQSPATLSVTPGDSVSLSCRASASISNNLHWYQQTSHESPRLLITYASQSISGIPSRFSGSGSGTDFTLSINSVETEDFGMYFCQQSNSWPLTFGAGTKLELKR . Reported kon?
Output: 144000
